Data provenance: patent US20220324835A1

Test system: primary human total T-cells
Test: T-cell activation assessed by CD69 expression
Assay type: cell-based
Settings: CD3 alone stimulation, CD8 T-cells, 10 μM, read-out: % CD69+ (CD8)
Measured Endpoint: fold induction at 10 µM

// below: answered molecules
C[C@H](Cc1nncn1C)c1cccc(N2Cc3c(cccc3C(F)(F)F)C2=O)c1 [Compound 255a] :: ≤ 1.2
Cn1cnnc1C(F)(F)[C@](C)(F)c1cccc(N2Cc3c(cc(CN4CC[C@@H](C#N)C4)cc3C(F)(F)F)C2=O)c1 :: 1.4 to 1.6
CNCc1ccc(C(=O)Nc2cccc([C@H](C)Cc3nncn3C)c2)nc1C1CC1 :: 1.4 to 1.6
C[C@H](Cc1nncn1C)c1cccc(NC(=O)c2cc3cc(N4CCNCC4)ccc3cn2)c1 :: 1.2 to 1.4
COC1CN(Cc2cc3c(c(C(F)(F)F)c2)CN(c2cccc([C@@](C)(F)C(F)(F)c4nncn4C)c2)C3=O)C1 :: 1.4 to 1.6

Hey, quick one: what's fold induction at 10 µM for each of these?
1. Cc1cc(C(=O)Nc2cccc([C@H](C)Cc3nncn3C)c2)nc(C2CC2)n1
2. Cn1cnnc1C(F)(F)[C@](C)(F)c1cccc(N2Cc3c(cc(C(=O)N4CC[C@H](O)C4)cc3C(F)(F)F)C2=O)c1

["1.4 to 1.6", "1.2 to 1.4"]

State its fold induction at 10 µM for this molecule: "Cn1cnnc1C(F)(F)[C@](C)(F)c1cccc(N2Cc3c(cc(CN4CC[C@@H](F)C4)cc3C(F)(F)F)C2=O)c1"
1.4 to 1.6
